# credit: the supplement of paper PMC10981050

# Test system: MOLM14
# MEASUREMENT_PROTOCOL: cell viability relative to vehicle control; higher = less cytotoxic;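 note: after 48 h exposure read by CellTiter-Glo luminescence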
# RUN_PARAMETERS: 10 µM; SRSF2 genotype: SRSF2 P95H/wt
Assignment: determine reported cell viability for the given molecules.
Numbers only, in %.

// solved cases for cell viability follow
- MOLECULE: "COC(=O)[C@@H]1CC2=CC(=O)CC[C@]2(C)[C@@]23O[C@@H]2C[C@@]2(C)[C@@H](CC[C@@]24CCC(=O)O4)[C@H]13"
  cell viability [%]: 107
- MOLECULE: "Nc1ccn([C@@H]2O[C@H](CO)[C@@H](O)C2(F)F)c(=O)n1"
  cell viability [%]: 4.86
- MOLECULE: "CC(C)CCCC(C)C1CCC2C3=CC=C4CC(O)CCC4(C)C3CCC21C (centres undefined) [7-Dehydrocholesterol]"
  cell viability [%]: 86.6

Now take the following molecule into account.
# cell viability (molecule: CNc1nc(Nc2cn(C(C)(C)C#N)nc2C)ncc1C(F)(F)F ) is 98.8

###

# Tested on: MOLM14
# MEASUREMENT_PROTOCOL: cell viability relative to vehicle control; higher = less cytotoxic
# RUN_PARAMETERS: 10 µM; SRSF2 genotype: SRSF2 wt/wt
ASSAY_METRIC: cell viability (%)
One number for each entry, in %.

State the recorded cell viability for every item in the following list.
1. COc1ccc(-c2ccc3cc(C(=O)O)ccc3c2)cc1C12CC3CC(CC(C3)C1)C2 [Adapalene]
2. Cc1c(C)c2c(c(C)c1OC(=O)CCC(=O)OCCOCCOCCO)CCC(C)(CCCC(C)CCCC(C)CCCC(C)C)O2 (stereo not given) [Tocofersolan]
3. NC(=O)c1ncn([C@@H]2O[C@H](CO)[C@@H](O)[C@H]2O)c1N [AICAR (Acadesine)]
4. O=c1cc(-c2ccccc2)oc2cc(O)c(O)c(O)c12 [Baicalein]
5. O=c1[nH]c(=S)[nH]c2nc(-c3ccccc3)c(-c3ccccc3)nc12
6. CCCCCCCCCC(C)=O [Methylnonylketone]

**Result**
23.9
97.2
118
85.2
97.4
99.7

###

# System: MARIMO
# MEASUREMENT_PROTOCOL: cell viability relative to vehicle control; higher = less cytotoxic
# RUN_PARAMETERS: 10 µM; SRSF2 genotype: SRSF2 P95H/wt
Where a name gives a salt, the structure may show the parent alone.
ASSAY_METRIC: cell viability (%)
Numbers only, in %.

- COMPOUND: "COc1ccc2cc([C@H](C)C(=O)O)ccc2c1 [Naproxen Sodium]"
  READOUT_NUMBER: 101

State the recorded cell viability for every item in the following list.
1. O=C(NC[C@H](O)CN1CCc2ccccc2C1)c1cc(NC2COC2)ncn1
2. CC(C)=C[C@H]1C[C@](C)(O)[C@@H]2[C@H]3CC[C@@H]4[C@@]5(C)CC[C@H](O[C@@H]6OC[C@H](O)[C@H](O[C@@H]7O[C@H](CO)[C@@H](O)[C@H](O)[C@H]7O[C@@H]7OC[C@@H](O)[C@H](O)[C@H]7O)[C@H]6O[C@@H]6O[C@@H](C)[C@H](O)[C@@H](O)[C@H]6O)C(C)(C)[C@@H]5CC[C@@]4(C)[C@@]34CO[C@@]2(C4)O1 [Jujuboside B]
3. N=C(N)NC(=O)c1nc(Cl)c(N)nc1N [Amiloride HCl]
4. C=CCc1cc(OC)c(OC)c(OC)c1 [Elemicin]

**Result**
1: 87.6; 2: 108; 3: 99.3; 4: 111

State the recorded cell viability for every item in the following list.
1. CN1CCc2nc(C(=O)N[C@@H]3C[C@@H](C(=O)N(C)C)CC[C@@H]3NC(=O)C(=O)Nc3ccc(Cl)cn3)sc2C1 [Edoxaban]
2. Cc1cc(Nc2cc(Cl)nc(Oc3ccc([N+](=O)[O-])cc3)n2)n[nH]1 [Autophinib]
3. COc1ccc(Oc2cc(C)c(-c3csc(NC(=O)c4ccncc4)n3)c(C)c2)cc1
4. CN1CCN(c2ccc3nc(-c4c(N)c5c(F)cccc5[nH]c4=O)[nH]c3c2)CC1 [Dovitinib Dilactic acid (TKI258 Dilactic aci]
5. C[C@@H]1CC[C@H]2C(C)(C)[C@H]3C[C@@]12CC[C@@]3(C)O [Cedrol]
6. O=C(c1ccc(F)c(F)c1Nc1ccc(I)cc1F)N1CC(O)([C@@H]2CCCCN2)C1 [Cobimetinib (GDC-0973, RG7420)]
7. CCCC(C)NC(=O)c1ccc(Cl)c(Cl)c1 (configuration not stated)

**Result**
95.7
33.4
37.8
10.8
103
27.5
90.5
